assay_name: Absorption and emission spectra of dyes in different solvents
Assay type: physicochemical
Parameters: key: Stokes shift in nm
condition_details: Stokes shift to absorption peak 2; solvent Methanol
readout_kind: Δλ2
No unit in the answer, only the number.

Guide cases for Δλ2, answers given:
1. CCN1/C(=C/C=C/C(=C/C2=[N+](CC)c3ccccc3C2(C)C)NCCO)C(C)(C)c2ccccc21 [Dye IIb]: 175
2. CCN1/C(=C/C=C/C(=C/C2=[N+](CC)c3ccccc3C2(C)C)N(CCO)CCO)C(C)(C)c2ccccc21 [Dye IIc]: 169
3. CCN1/C(=C/C=C/C(=C/C2=[N+](CC)c3ccccc3C2(C)C)N(Cc2ccccc2)Cc2ccccc2)C(C)(C)c2ccccc21 [Dye IIf]: 166

Now for another entry.
stdin: Fill blank: measured Δλ2 of the molecule CCN1/C(=C/C=C/C(=C/C2=[N+](CC)c3ccccc3C2(C)C)NCc2ccccc2)C(C)(C)c2ccccc21 [Dye IIe] is ____.
stdout: 174

----------
assay_name: Absorption and emission spectra of dyes in different solvents
Type: physicochemical
condition_details: solvent Water
From the text: In the present invention, compounds IIa to IIg were synthesized based on compound II, and their spectral properties were investigated. […]
readout_kind: λabs1 (nm)
Field format: number, assumed nm, no unit text.

1) CCN1/C(=C/C=C/C(=C/C2=[N+](CC)c3ccccc3C2(C)C)Nc2ccccc2)C(C)(C)c2ccccc21: 559

stdin: Returns the measured λabs1 for the input molecule. Input: "CCN1/C(=C/C=C/C(=C/C2=[N+](CC)c3ccccc3C2(C)C)N(CCO)CCO)C(C)(C)c2ccccc21"
stdout: 517

stdin: Entry "CCN1/C(=C/C=C/C(=C/C2=[N+](CC)c3ccccc3C2(C)C)NCCO)C(C)(C)c2ccccc21" please
stdout: 517

stdin: Entry "CCN1/C(=C/C=C/C(=C/C2=[N+](CC)c3ccccc3C2(C)C)NCc2ccccc2)C(C)(C)c2ccccc21" please
stdout: 516

----------
Reported λbs2 values for the following molecules.
assay_name: Absorption and emission spectra of dyes in different solvents
Type: physicochemical
condition_details: solvent Methanol
Express it in nm; write the number only.

1) CCN1/C(=C/C=C/C(=C/C2=[N+](CC)c3ccccc3C2(C)C)N(Cc2ccccc2)Cc2ccccc2)C(C)(C)c2ccccc21 [Dye IIf]: 451

stdin: Find the recorded λbs2 belonging to CCN1/C(=C/C=C/C(=C/C2=[N+](CC)c3ccccc3C2(C)C)NCc2ccccc2)C(C)(C)c2ccccc21 [Dye IIe] and report it.
stdout: 431

stdin: Same question for CCN1/C(=C/C=C/C(=C/C2=[N+](CC)c3ccccc3C2(C)C)Nc2ccccc2)C(C)(C)c2ccccc21 [Dye IIg] please.
stdout: 430

stdin: Thanks! And CCN1/C(=C/C=C/C(N)=C/C2=[N+](CC)c3ccccc3C2(C)C)C(C)(C)c2ccccc21 [Dye IIa] ?
stdout: 418

stdin: What do we get for CCN1/C(=C/C=C/C(=C/C2=[N+](CC)c3ccccc3C2(C)C)N(CCO)CCO)C(C)(C)c2ccccc21 [Dye IIc] ?
stdout: 450

stdin: Follow-up item: CCN1/C(=C/C=C/C(=C/C2=[N+](CC)c3ccccc3C2(C)C)NCCO)C(C)(C)c2ccccc21 [Dye IIb]
stdout: 433

stdin: Continue with CCN(CC)C(=C\C1=[N+](CC)c2ccccc2C1(C)C)/C=C/C=C1/N(CC)c2ccccc2C1(C)C [Dye IId]
stdout: 451

Values compiled from patent US8735601B2.
